Values were extracted from patent US20050261264A1.

Test: Miscibility with solvents, visual evaluation at 5 wt %
Format: physicochemical
Design: key: ⊚: dissolves at room temperature; ◯: dissolves when heated for 5 minutes at 40° C.; Δ: dissolves under heating, but cooling precipitates crystals; X: does not dissolve
Settings: complex added at 5 wt %
attribute_measured: Miscibility, Acetone

• O=C(C=C([O-])C(F)(F)F)C(F)(F)F.O=C(C=C([O-])C(F)(F)F)C(F)(F)F.O=C(C=C([O-])C(F)(F)F)C(F)(F)F.[Eu+3] [Eu(HFA)3, reference compound] = ⊚
• O=C(C=C([O-])C(F)(F)F)C(F)(F)F.O=C(C=C([O-])C(F)(F)F)C(F)(F)F.O=C(C=C([O-])C(F)(F)F)C(F)(F)F.O=P(c1ccccc1)(c1ccccc1)c1ccccc1.O=P(c1ccccc1)(c1ccccc1)c1ccccc1.[Eu+3] [Eu(HFA)3(TPPO)2, reference compound] = ⊚
• O=S(=O)([N-]S(=O)(=O)C(F)(F)F)C(F)(F)F.O=S(=O)([N-]S(=O)(=O)C(F)(F)F)C(F)(F)F.O=S(=O)([N-]S(=O)(=O)C(F)(F)F)C(F)(F)F.O=S(c1ccccc1)c1ccccc1.O=S(c1ccccc1)c1ccccc1.O=S(c1ccccc1)c1ccccc1.O=S(c1ccccc1)c1ccccc1.O=S(c1ccccc1)c1ccccc1.O=S(c1ccccc1)c1ccccc1.O=S(c1ccccc1)c1ccccc1.O=S(c1ccccc1)c1ccccc1.[Eu+3] [Eu(PMS)3(DPSO)8] = ⊚

====

Experiment: Miscibility with solvents, visual evaluation at 5 wt %
Type: physicochemical
Design: key: ⊚: dissolves at room temperature; ◯: dissolves when heated for 5 minutes at 40° C.; Δ: dissolves under heating, but cooling precipitates crystals; X: does not dissolve
Conditions: complex added at 5 wt %
attribute_measured: Miscibility, Chloroform

- O=C(C=C([O-])C(F)(F)F)C(F)(F)F.O=C(C=C([O-])C(F)(F)F)C(F)(F)F.O=C(C=C([O-])C(F)(F)F)C(F)(F)F.O=P(c1ccccc1)(c1ccccc1)c1ccccc1.O=P(c1ccccc1)(c1ccccc1)c1ccccc1.[Eu+3] [Eu(HFA)3(TPPO)2, reference compound]: ◯
- O=S(=O)([N-]S(=O)(=O)C(F)(F)F)C(F)(F)F.O=S(=O)([N-]S(=O)(=O)C(F)(F)F)C(F)(F)F.O=S(=O)([N-]S(=O)(=O)C(F)(F)F)C(F)(F)F.O=S(c1ccccc1)c1ccccc1.O=S(c1ccccc1)c1ccccc1.O=S(c1ccccc1)c1ccccc1.O=S(c1ccccc1)c1ccccc1.O=S(c1ccccc1)c1ccccc1.O=S(c1ccccc1)c1ccccc1.O=S(c1ccccc1)c1ccccc1.O=S(c1ccccc1)c1ccccc1.[Eu+3]: ◯

====

Experiment: Miscibility with solvents, visual evaluation at 5 wt %
Assay type: physicochemical
Design: key: ⊚: dissolves at room temperature; ◯: dissolves when heated for 5 minutes at 40° C.; Δ: dissolves under heating, but cooling precipitates crystals; X: does not dissolve
Settings: complex added at 5 wt %
attribute_measured: Miscibility, Chloroform

• O=C(C=C([O-])C(F)(F)F)C(F)(F)F.O=C(C=C([O-])C(F)(F)F)C(F)(F)F.O=C(C=C([O-])C(F)(F)F)C(F)(F)F.[Nd+3] [Nd(HFA)3, reference compound] = X

====

Test: Number of moles of bound water per mole of complex (TG-DTA)
Format: physicochemical
Settings: before drying (crystals as obtained), weight reduction at 100° C.
attribute_measured: Number of moles of bound water per mole of complex
Answers are plain numbers.

Req: Value lookup for Number of moles of bound water per mole of complex; key = O=P(c1ccccc1)(c1ccccc1)c1ccccc1.O=P(c1ccccc1)(c1ccccc1)c1ccccc1.O=P(c1ccccc1)(c1ccccc1)c1ccccc1.O=P(c1ccccc1)(c1ccccc1)c1ccccc1.O=P(c1ccccc1)(c1ccccc1)c1ccccc1.O=P(c1ccccc1)(c1ccccc1)c1ccccc1.O=P(c1ccccc1)(c1ccccc1)c1ccccc1.O=P(c1ccccc1)(c1ccccc1)c1ccccc1.O=S(=O)([N-]S(=O)(=O)C(F)(F)F)C(F)(F)F.O=S(=O)([N-]S(=O)(=O)C(F)(F)F)C(F)(F)F.O=S(=O)([N-]S(=O)(=O)C(F)(F)F)C(F)(F)F.[Nd+3]
Resp: 3.41
